# Test system: LS-180 (colon cancer)
# Protocol summary: MTT cytotoxicity assay on LS-180 cells
# Assay type: cell-based, human
# Conditions: 24 h incubation
Each item that follows carries a reported IC50 ± SD, LS180.

- Structure string: "O=C1CCN1c1cc2ccccc2cn1.O=C1CCN1c1cc2ccccc2cn1.[Cl][Cu][Cl]"
  Unit symbol: "µg/mL"
  IC50 ± SD, LS180: 11.46
- Structure string: "CN1CCN(c2cc3ccccc3cn2)C1=O.[Cl][Cu][Cl]"
  Unit symbol: "µg/mL"
  IC50 ± SD, LS180: 7.09
- Structure string: "CCN1CCN(c2cc3ccccc3cn2)C1=O.[Cl][Cu][Cl]"
  Unit symbol: "µg/mL"
  IC50 ± SD, LS180: 5.92
- Structure string: "O=C1NCCN1c1cc2ccccc2cn1.O=C1NCCN1c1cc2ccccc2cn1.[Cl][Cu][Cl]"
  Unit symbol: "µg/mL"
  IC50 ± SD, LS180: 5.88

These data points were gathered from paper PMC10779222.
